Catalogue of CC50 readings, one per entry.
# METHOD_DESCRIPTION: in vitro
# STATED_CONDITIONS: monkey

{"CHEMICAL_SMILES": "NC(=O)c1nc(F)c[nH]c1=O", "CC50": "> 100 µM"}
{"CHEMICAL_SMILES": "CCN(CC)Cc1cc(Nc2ccnc3cc(F)ccc23)ccc1O", "CC50": "> 100 µM"}
{"CHEMICAL_SMILES": "CCN(CC)Cc1cc(Nc2ccnc3cc(Cl)ccc23)ccc1O", "CC50": "> 100 µM"}
{"CHEMICAL_SMILES": "CCN(CC)Cc1cc(Nc2ccnc3cc(Br)ccc23)ccc1O", "CC50": "> 100 µM"}
{"CHEMICAL_SMILES": "CCN(CC)Cc1cc(Nc2ccnc3cc(I)ccc23)ccc1O", "CC50": "> 100 µM"}
{"CHEMICAL_SMILES": "NC(=O)c1ncn([C@@H]2O[C@H](CO)[C@@H](O)[C@H]2O)n1", "CC50": "> 100 µM"}
